assay: HepG2 cell viability by MTS; format: cell-based; details: human; 5 μM, HepG2 cells, 3 days, DMEM without FBS, MTS; read-out: Average Viability (% Inhibition, n = 3)
Readout Type: cytotoxicity at 3 days, 5 μM (%)
Could you give me the number in %? Just the number is fine.

O=S(=O)(Nc1ccc(-c2csc(-c3ccc4c(c3)CCO4)n2)c(Cl)c1)C(F)(F)F: 82
O=S(=O)(Nc1ccc(-c2csc(-c3ccnc4ccccc34)n2)c(Cl)c1)C(F)(F)F: 84
O=S(=O)(Nc1ccc(-c2csc(-c3ccc(F)cc3CN3CCCC3)n2)c(Cl)c1)C(F)(F)F: 4
O=S(=O)(Nc1ccc(-c2csc(-c3ccnc(Cl)c3)n2)c(Cl)c1)C(F)(F)F: 86
O=S(=O)(Nc1ccc(-c2csc(-c3c[nH]c4ccccc34)n2)c(Cl)c1)C(F)(F)F: 82

(Q) # lookup: cytotoxicity at 3 days, 5 μM of `O=S(=O)(Nc1ccc(-c2csc(-c3ccc(F)cc3C(F)(F)F)n2)c(Cl)c1)C(F)(F)F`
(A) 88

(Q) Looking for the measured cytotoxicity at 3 days, 5 μM of `O=S(=O)(Nc1ccc(-c2csc(-c3cccc(CO)c3)n2)c(Cl)c1)C(F)(F)F` , can you help?
(A) 0

(Q) Name the reported cytotoxicity at 3 days, 5 μM value associated with the compound `O=S(=O)(Nc1ccc(-c2csc(-c3ccnc(NC4CCCC4)c3)n2)c(Cl)c1)C(F)(F)F`
(A) 94

----------
test: PK parameters for representative compounds (i.v. and p.o.); conditions: in vivo, iv; i.v. @ 2 mg/kg; read-out: Terminal t1/2 (converted)
Readout Type: half-life (h)
Record the value in h, omitting the unit from your answer.

Take a look at these entries with their results.
O=S(=O)(Nc1ccc(-c2csc(-c3ccnc(Cc4ccccc4)c3)n2)c(Cl)c1)C(F)(F)F [Compound 60]: 3.08
O=S(=O)(Nc1ccc(-c2csc(-c3cccc4ccccc34)n2)c(Cl)c1)C(F)(F)F [Compound 71]: 3.5
O=S(=O)(Nc1ccc(-c2csc(-c3ccnc(N4CCCCC4)c3)n2)c(Cl)c1)C(F)(F)F [Compound 85]: 4.08
O=S(=O)(Nc1ccc(-c2csc(-c3ccnc(CC4CCCCC4)c3)n2)c(Cl)c1)C(F)(F)F [Compound 70]: 1.1
O=S(=O)(Nc1ccc(-c2csc(-c3ccc4c(c3)CCO4)n2)c(Cl)c1)C(F)(F)F [Compound 82]: 3.64
O=S(=O)(Nc1ccc(-c2csc(-c3cccc4[nH]ccc34)n2)c(Cl)c1)C(F)(F)F [Compound 80]: 2.8

(Q) What does the data say about its half-life? Entry: O=S(=O)(Nc1ccc(-c2csc(-c3cccc(N4CCCCC4)c3)n2)c(Cl)c1)C(F)(F)F [Compound 88]
(A) 3.35

----------
Experiment: PK parameters for representative compounds (i.v. and p.o.)
Settings: in vivo, po; p.o. @ 10 mg/kg
Source text: Standard PK parameters were collected in Mouse and Dog for Compound #37 in mouse (FIG. 4A) and dog (FIG. 4B).
Readout Type: AUC(0-t)

Observe how each entry below is paired with its result.
O=S(=O)(Nc1ccc(-c2csc(-c3cccc4[nH]ccc34)n2)c(Cl)c1)C(F)(F)F: 130 µM·h
O=S(=O)(Nc1ccc(-c2csc(-c3ccnc(CC4CCCCC4)c3)n2)c(Cl)c1)C(F)(F)F: 5.19 µM·h
O=S(=O)(Nc1ccc(-c2csc(-c3ccnc(Cc4ccccc4)c3)n2)c(Cl)c1)C(F)(F)F: 57.1 µM·h
O=S(=O)(Nc1ccc(-c2csc(-c3ccnc(N4CCCCC4)c3)n2)c(Cl)c1)C(F)(F)F: 2.27 µM·h
O=S(=O)(Nc1ccc(-c2csc(-c3ccc4c(c3)CCO4)n2)c(Cl)c1)C(F)(F)F: 175 µM·h

(Q) Query (compound): `O=S(=O)(Nc1ccc(-c2csc(-c3ccnc(CCC(F)(F)F)c3)n2)c(Cl)c1)C(F)(F)F` ; field requested: AUC(0-t)
(A) 526 µM·h

(Q) Form field: reported AUC(0-t) of `O=S(=O)(Nc1ccc(-c2csc(-c3cccc4ccccc34)n2)c(Cl)c1)C(F)(F)F`
(A) 51.5 µM·h

(Q) Look up AUC(0-t): `O=S(=O)(Nc1ccc(-c2csc(-c3cccc(N4CCCCC4)c3)n2)c(Cl)c1)C(F)(F)F`
(A) 51.5 µM·h
